# Tested on: K-562 leukemia
# test description: NCI-60 one-dose screen, 48 h (100 = growth as untreated, 0 = no growth, -100 = all killed)
# condition label: 10 µM unless noted
The panel holds about 83,000 compounds, 20% with a hit somewhere; the sample as a whole holds those more often.
Threshold check on growth: at or above 90% gives 1, strictly below gives -1.

API: above_or_equal(metric=growth, cutoff=90%) for item CN1C(=O)/C(=C2\SC(=Nc3ccccc3)N(Nc3ccccc3)C2=O)c2ccccc21
1

====

# Test system: MDA-MB-231 breast
# test description: NCI-60 one-dose screen, 48 h (100 = growth as untreated, 0 = no growth, -100 = all killed)
# condition label: 10 µM unless noted
About 83,000 compounds went through this panel and 20% of them were active in at least one assay; those are over-represented in the sample as a whole.
Please use 1 (yes) for growth under 80% and 0 (no) for everything else, ties included.

Solved entries (count: 5):
# check: growth < 80% for CCOC(=O)C1=C(C)C(Cl)=N/C1=C\c1[nH]c(Cl)c(C)c1C(=O)OCC
0 (no)

# check: growth < 80% for CCNc1ccc(-c2nc3ccccc3n3cccc23)cc1
1 (yes)

# check: growth < 80% for COc1ccc(C[n+]2c3ccccc3n3c4ccc(N)cc4ccc32)c(OC)c1OC
1 (yes)

# check: growth < 80% for CCN1CCN(CC(=O)Nc2ccc(-c3cn4c(n3)sc3cc(Oc5ccnc(C(=O)NC)c5)ccc34)cc2)CC1
0 (no)

# check: growth < 80% for O=C(Nc1ccccc1[N+](=O)[O-])c1ccc(Cl)c(Cl)c1
0 (no)

Then there is this compound:
# check: growth < 80% for CC1=CCC(OC(=O)C(C)(C)CC(O)(C(C)O)C(O)C2(C)C=CC(Cc3ccc(C(C)C)cc3)(C(C)C)CC2)(C(C)C)CC1 (centres undefined)
0 (no)

====

# Test system: UACC-62 melanoma
# test description: NCI-60 one-dose screen, 48 h
# condition label: 10 µM unless noted
# Method: Growth inhibition of the UACC-62 human tumor cell line is measured as a screen for anti-cancer activity. Cells are grown in 96 well plates and exposed to the test compound for 48 hours. Compounds are tested at a single concentration, which is 10^-5 M for most compounds. The reported endpoint is percent growth (GI% or GIPRCNT), where numbers from 0 - 100% represent growth inhibition, and numbers from -100% - 0 represent cell death. For example, a value of 40 represents 60% growth inhibition. […]
Compounds without any hit were thinned out: in the full panel of roughly 83,000, 20% have a hit. The source made the active and inactive calls. The calls were made as follows: active = growth percent below 10; inactive = the rest.
The categories you may choose from are active, inactive

Solved entries (count: 2):
Field: outcome | Entry: C=C(C)[C@@H]1CC[C@]2(COC(C)=O)CC[C@]3(C)[C@H](CC[C@@H]4[C@@]5(C)CCCN(C(C)=O)C(C)(C)[C@@H]5CC[C@]43C)[C@@H]12
active

Field: outcome | Entry: C/C(=N\O)[C@@H]1CC[C@]2(CO)CC[C@]3(C)[C@H](CC[C@@H]4[C@@]5(C)CCCNC(C)(C)[C@@H]5CC[C@]43C)[C@@H]12
inactive

Further cases:
Field: outcome | Entry: [2H]C([2H])([2H])Oc1ccc(F)cc1/C=C/C(=O)/C=C(/C=C/c1cc(F)ccc1OC([2H])([2H])[2H])OB(F)F
inactive

====

# Tested on: MALME-3M melanoma
# test description: NCI-60 one-dose screen, 48 h
# condition label: 10 µM unless noted
The panel holds about 83,000 compounds, 20% with a hit somewhere; the sample as a whole holds those more often. The source made the active and inactive calls. The calls were made as follows: active = growth percent below 10; inactive = the rest.
The categories you may choose from are 1 for active, 0 for inactive

Solved entries (count: 2):
Field: outcome | Entry: CN1CCN(CCOc2ccc(-c3cnc4c(-c5cccc(F)c5F)cnn4c3)cc2)CC1
1

Field: outcome | Entry: N[C@H]1CCC[C@@H]1NCCCCN1C(=O)c2cccc3cc([N+](=O)[O-])cc(c23)C1=O
0

Further cases:
Field: outcome | Entry: CCCCNC(=O)c1cc([N+](=O)[O-])cc(C2CCCCC2)c1O
1

Field: outcome | Entry: O=C(NNC(=O)c1nc2cc(F)ccc2n2cccc12)c1cnccn1
0

Field: outcome | Entry: O=C(Nc1cnc(Nc2ccc(N3CCOCC3)nc2)nc1Oc1ccc(C(F)(F)F)cc1)c1ccncc1
0

====

# System: KM12 colon
# test description: NCI-60 one-dose screen, 48 h (100 = growth as untreated, 0 = no growth, -100 = all killed)
# condition label: 10 µM unless noted
Compounds without any hit were thinned out: in the full panel of roughly 83,000, 20% have a hit.
Listing of recorded growth by entry.
The figure you give is taken to be in %; do not add the unit.

Study these solved cases before continuing.
Output growth of CSc1nc(C)c([N+](=O)[O-])c(N)n1
99.5

Output growth of O=C(/C=C/c1cccc(Cl)c1Cl)Nc1ncc(Cc2ccccc2Cl)s1
28.8

Output growth of CC[N+]1(CC)CC[N+]2(CCCC(C)CC2)CC1 (stereo unspecified)
104

Output growth of COc1ccc(C(=O)N2c3ccccc3Sc3ccccc32)c(C(F)(F)F)c1
18

Output growth of COc1ccc(/C=C/C(c2cc(OC)c(OC)c(OC)c2)n2cncn2)cc1 (stereo unspecified)
30.7

# evaluate next
Output growth of O=C(NCc1cccc(CNC(=O)Nc2nc3ccccc3[nH]2)c1)Nc1nc2ccccc2[nH]1
-41.9

====

Listing of recorded growth by entry.
# Tested on: PC-3 prostate
# test description: NCI-60 one-dose screen, 48 h (100 = growth as untreated, 0 = no growth, -100 = all killed)
# condition label: 10 µM unless noted
# Protocol: Growth inhibition of the PC-3 human tumor cell line is measured as a screen for anti-cancer activity. Cells are grown in 96 well plates and exposed to the test compound for 48 hours. Compounds are tested at a single concentration, which is 10^-5 M for most compounds. The reported endpoint is percent growth (GI% or GIPRCNT), where numbers from 0 - 100% represent growth inhibition, and numbers from -100% - 0 represent cell death. For example, a value of 40 represents 60% growth inhibition. […]
This is part of a sample that, as a whole, favours compounds with a hit. Of some 83,000 tested, about 20% had one in any assay. Active and inactive are the calls of the source. How the source made its calls: active means growth percent below 10; inactive means the rest.

Output growth of CC1(C)CC2=C3C=C[C@@H]4[C@@]5(C)CCC(=O)C(C)(C)[C@@H]5CC[C@@]4(C)[C@]3(C)CC[C@@]2(C(=O)O)C[C@H]1O
40.4% (inactive)

Output growth of O=C(Oc1ccc(CCl)cc1)c1ccccc1
-91.3% (active)

Output growth of CC(C)(C)n1cc(-c2ccnc(NCCCNS(=O)(=O)c3cccc4ccccc34)c2)c(-c2cccc(F)c2)n1
55.8% (inactive)

Output growth of CCCCCCCC/C=C\CCCCCCCCOc1ccc(CC(=O)NCC[N+]2(C)CCOCC2)cc1
12.5% (inactive)

Output growth of Cc1ccc(C(=O)c2ccc(CC(=O)NN3C(=O)c4ccccc4C3=O)n2C)cc1
98.9% (inactive)

Further cases:
Output growth of O=C(/C=C/c1cccc(Cl)c1Cl)Nc1ncc(Cc2ccccc2Cl)s1
56.5% (inactive)

Output growth of O=C1Nc2ccccc2/C1=C\c1c[nH]c2ccc(Br)cc12
70.8% (inactive)

Output growth of CC(C)(C)c1cc(Cl)c(O)c(CNCCO)c1
112% (inactive)

Output growth of COc1cccc(C(=O)NNc2nc(Cl)nc(Cl)n2)c1
97.4% (inactive)

Output growth of CC/C=C\C[C@H](O)C/C=C1/C(=O)C=C[C@@H]1C/C=C\CCCC(=O)O
61.3% (inactive)

Output growth of COc1cc(/C=N/Nc2ccc(Br)cc2)cc(OC)c1OC
60.9% (inactive)

Output growth of Cc1nc2ccccc2c(/C=C/c2ccccc2)c1C(=O)/C=C/c1ccccc1
35.1% (inactive)

Output growth of NC(N)=NS(=O)(=O)c1ccc(NC2=C(I)C(=O)c3ncccc3C2=O)cc1
92.1% (inactive)

Output growth of Cc1ccc(-c2nc(N3CCNCC3)c3oc(-c4ccc(C)cc4)nc3n2)cc1
-90.2% (active)

Output growth of O=C(Nc1ccccc1O)c1ccc(CNC(=O)c2ccsc2Nc2ccnc(C(F)(F)F)c2)cc1
14.5% (inactive)

Output growth of C=C1CC[C@@H]2[C@](C)(COC(C)=O)[C@H](OC(C)=O)CC[C@@]2(C)[C@@H]1CC(Nc1ccc(S(=O)(=O)NC(C)=O)cc1)C1=CCOC1=O (some centres undefined)
0.695% (active)

====

# System: MALME-3M melanoma
# test description: NCI-60 one-dose screen, 48 h (100 = growth as untreated, 0 = no growth, -100 = all killed)
# condition label: 10 µM unless noted
# Description: Cells are grown in 96 well plates and exposed to the test compound for 48 hours. Compounds are tested at a single concentration, which is 10^-5 M for most compounds. The reported endpoint is percent growth (GI% or GIPRCNT), where numbers from 0 - 100% represent growth inhibition, and numbers from -100% - 0 represent cell death. For example, a value of 40 represents 60% growth inhibition. A value of 0 means no net growth occurred over the course of the experiment. […]
About 83,000 compounds went through this panel and 20% of them were active in at least one assay; those are over-represented in the sample as a whole. Activity calls are given as the source filed them. The calls were made as follows: active = growth percent below 10; inactive = the rest.
test readout: growth

Study these solved cases before continuing.
Output growth of Nc1nc(N)c2c(n1)NC(c1ccc(Cl)cc1)C1CCc3ccccc3C1=N2 (stereo not given)
19.6% (inactive)

Output growth of Cc1ccc2nc(/C(C#N)=C(/CCCO)NC(Cc3ccccc3)C(=O)OCc3ccccc3)[nH]c(=O)c2c1 (stereo not given)
126% (inactive)

Output growth of CC(C)=CCNc1ncnc2c1ncn2C1OC(CO)C(O)C1O (stereo not given)
32.4% [1 mM] (inactive)

Output growth of C[C@@H]1O[C@@H](O[C@@H]2C[C@H](c3ccc4c(c3O)C(=O)C3=C(C4=O)[C@@]4(O)C(=O)C[C@](C)(O)C[C@@]4(O)C=C3)O[C@H](C)[C@H]2O)CC[C@@H]1O[C@H]1C[C@@H](O)[C@H](O)[C@@H](C)O1
65.4% (inactive)

Output growth of O=P(O)(O)OCC1OC(n2cnc3c(NCc4ccco4)ncnc32)C(O)C1O (stereo not given)
87.4% (inactive)

Output growth of CCC1S/C(=N\N=C(\C)c2cc3cc(Cl)ccc3o2)N(c2ccccc2)C1=O (stereo not given)
-3.03% (active)

Output growth of Nc1c(C(=O)Nc2cccc(Cl)c2)sc2nc3c(cc12)CCCC3
102% (inactive)

Output growth of CCN(CC)CCN1C(=O)c2c(c(C)c3c(oc4ccc(O)cc43)c2C)C1=O
73.3% (inactive)

Output growth of COc1cc(/C=C2\CN(S(=O)(=O)c3ccccc3)C/C(=C\c3cc(CN4CCCCC4)c(O)c(OC)c3)C2=O)cc(CN2CCCCC2)c1O
-77.6% (active)

# evaluate next
Output growth of C=CCN1C(=O)c2cccc3c(N4CCOCC4)ccc(c23)C1=O
-3.28% (active)
